assay: small-molecule microarray binders of probe aXIP, primary screen, biochemical, NeuroSMM set, 635/667 nm fluorescence (AID 1119); conditions: higher = more signal, called active from +8 up or from −8 down;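 note: probe is the protein aXip251-270 applied at 1 µg/mL to compound-printed slides; binding of probe to printed compounds measured as 667 nm fluorescence plus signal to noise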
Documented composite Z-score across a set of molecules

Molecule	composite Z-score
COCCOC(=O)N1C(=O)[C@@]2(c3cc(C#CCNC(N)=O)ccc31)[C@H](c1ccc(O)cc1)N1[C@H](c3ccccc3)[C@H](c3ccccc3)OC(=O)[C@H]1[C@@H]2C(=O)NC[C@H](O)c1ccccc1	0.297
O=C1[C@]2(CO)C=C(Br)[C@@H](C[C@@H]2c2ccccc2)[C@@]12CO2	0.689
COCCOC(=O)N1C(=O)[C@@]2(c3cc(C#CCNC(N)=O)ccc31)[C@H](C(=O)N1CCc3cc(OC)c(OC)cc3C1)[C@H]1C(=O)O[C@H](c3ccccc3)[C@H](c3ccccc3)N1[C@@H]2c1ccc(OCCO)cc1	0.202
COC(=O)[C@]1(Cc2ccccc2N=[N+]=[N-])N=C(c2ccc(OCCCO)cc2)O[C@@H]1c1ccccc1N=[N+]=[N-]	-0.47
C[C@H]1NC(=O)[C@H](Cc2ccccc2)NC(=O)[C@@]23C(=O)N[C@@H](Cc4ccccc4)C2[C@H](C)[C@@]2(C)O[C@H]2C3/C=C/C/C=C\CNC1=O (stereo partly drawn)	0.572
CC(C)NC(=O)[C@@H]1c2ccccc2C(=O)N(Cc2ccccc2Cl)[C@H]1c1ccc(CO)cc1	0.757
COCCOC(=O)N1C(=O)[C@@]2(c3cc(C#CCC(C(=O)OC)C(=O)OC)ccc31)[C@H](c1ccc(O)cc1)N1[C@H](c3ccccc3)[C@H](c3ccccc3)OC(=O)[C@H]1[C@@H]2C(N)=O	1.07
CCOC(=O)C1=CCC(C(C)(C)C)N(S(=O)(=O)c2ccc(C)cc2)C1 (stereo not drawn)	-0.427
[N-]=[N+]=NCc1ccccc1C[C@]1(C(=O)NCC(O)CO)N=C(c2ccc(OCCCO)cc2)O[C@H]1c1ccccc1N=[N+]=[N-] (stereo partly drawn)	0.529
CC(C)(C)OC(=O)CC[C@@]1(C(=O)NCCN2CCOCC2)N=C(c2ccc(OCCCO)cc2)O[C@@H]1c1ccccc1	-0.548
COCCOC(=O)N1C(=O)[C@@]2(c3cc(C#CCC(C(=O)OC)C(=O)OC)ccc31)[C@H](C(=O)N1CCCCCCC1)[C@H]1C(=O)O[C@H](c3ccccc3)[C@H](c3ccccc3)N1[C@@H]2c1ccc(OCCO)cc1	4.41
COC(=O)[C@@]1(Cc2ccccc2)[C@H]2c3cc(C(=O)N(C)C)n(Cc4c(-c5ccccc5)noc4C)c3C[C@H]2CN1C(=O)c1ccccc1	-0.899
COc1ccc(CCNC(=O)[C@@]2(Sc3ccc(C)cc3)CC(=O)N(Cc3ccccc3Cl)[C@@H]2c2ccc(CO)cc2I)cc1	-0.0194

----------
test: binders of probe aHhip on microarray, primary screen, stem cell growth factor project, biochemical, small-molecule microarray, fluorescence 635/667 (AID 1087); conditions: higher = more signal;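 note: score merges spot fluorescence at 667nm with spot signal to noise ratio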
Value kind: composite z-score

Molecule	Value kind	Readout value
CC(C)C(=C=CC[C@H](O)c1ccccc1OCCO)C[C@H](O)c1ccccn1	composite z-score	-0.201
COCC(=C=CC[C@H](O)c1ccc(OCCO)cc1)C[C@H](O)c1cc(Cl)cc(Cl)c1O	composite z-score	0.0505
CC(C)C[C@@H]1NC(=O)[C@@H]2C[C@H](C(=O)NCCCCCC[N+](C)(C)C)[C@H](c3ccc(O)cc3)N2C1=O	composite z-score	-0.271
CCCCC=C[C@@H](NC(=O)c1ccc(C(=O)OC)cc1)c1ccccc1	composite z-score	-0.189
C=C(CCCC)/C(=C/C[C@H](OC(C)=O)c1ccc(CO)o1)c1cnc2ccccc2c1	composite z-score	0.0505
CCCNC(=O)[C@@]1(c2ccc([N+](=O)[O-])cc2)CC(=O)N(CC23CC4CC(CC(C4)C2)C3)[C@@H]1c1ccc(CO)cc1	composite z-score	0.358
CC(C)CNC(=O)[C@@]1(c2ccc([N+](=O)[O-])cc2)CC(=O)N(CC23CC4CC(CC(C4)C2)C3)[C@@H]1c1ccc(CO)cc1	composite z-score	0.075
C=CCC(OC(C)=O)[C@@H]1[C@@H](N(Cc2cccc3ccccc23)C(=O)c2cccc3ccccc23)c2cc(OCCCO)ccc2N1C(=O)c1ccc2ccccc2n1 (stereo partly drawn)	composite z-score	0.0826

This collection of values is drawn from PubChem BioAssay.
